assay: Enzymatic hydrolysis of α-T3 esters in rat liver microsomes; format: in vitro ADME; conditions: liver microsomes; rat liver microsome, pH 7.4, 37 °C; Michaelis–Menten fit
REPORTED_PROPERTY: Km
A complete answer gives the number followed by the unit.

Worked cases, Km given:
COMPOUND | Km
CC(C)=CCC/C(C)=C/CC/C(C)=C/CC[C@]1(C)CCc2c(C)c(OC(=O)CCC(=O)O)c(C)c(C)c2O1 [α-T3Suc, 2R-α-Tocotrienyl acid succinate] | 61.6 µM
CC(C)=CCC/C(C)=C/CC/C(C)=C/CC[C@]1(C)CCc2c(C)c(OC(=O)CN(C)C)c(C)c(C)c2O1 [α-T3DMG] | 5720 µM

Field: next compound
What value of measured Km is listed for CNCC(=O)Oc1c(C)c(C)c2c(c1C)CC[C@@](C)(CC/C=C(\C)CC/C=C(\C)CCC=C(C)C)O2 [α-T3MG, 2R-α-Tocotrienyl N-methylglycinate] ? 176 µM

====

test: Water solubility; assay type: physicochemical; settings: distilled water, 25 ± 1 °C, shaken 3 h
REPORTED_PROPERTY: solubility at 3 h

COMPOUND | solubility at 3 h
CNCC(=O)Oc1c(C)c(C)c2c(c1C)CC[C@@](C)(CC/C=C(\C)CC/C=C(\C)CCC=C(C)C)O2 [α-T3MG, 2R-α-Tocotrienyl N-methylglycinate] | > 50 mM

Field: next compound
What value of measured solubility at 3 h is listed for CC(C)=CCC/C(C)=C/CC/C(C)=C/CC[C@]1(C)CCc2c(C)c(OC(=O)CN(C)C)c(C)c(C)c2O1 [α-T3DMG] ? > 50 mM

====

assay: Stability in water; format: physicochemical; settings: water; accelerated condition at 40 °C
REPORTED_PROPERTY: half-life

What value of measured half-life is listed for "CC(C)=CCC/C(C)=C/CC/C(C)=C/CC[C@]1(C)CCc2c(C)c(OC(=O)CN(C)C)c(C)c(C)c2O1" ? ~27 days
